# assay-method-text: Plasma pharmacokinetics after oral administration in gelatin capsules
# Type: in vivo, Beagle dogs
# experimental-parameters: both sexes, Beagle, dog, oral 0.15 mg kg^−1 b.i.d. group, read-out: mean Cmax in dose group
# Method: Aged Beagle dogs of both sexes ranging from 8 to 15 years of age, in generally good health and located in the Vivocore Inc dog colony, were utilized in this study. […] In the first study, four dogs were dosed 10 mg kg^-1 q.d. with endpoints assessed after dosing and compared to those taken pre-dose in individual dogs. […] Plasma concentration versus time profiles were analyzed to determine pharmacokinetic parameters using noncompartmental methods (Phoenix® WinNonlin® 6.3, Pharsight Certara).
value-kind: Cmax (ng/mL)
Response body: numeric value in ng/mL, unit text excluded.

Respond only with Cmax recorded for NCCCC[C@H](NC(=O)C1CCCC1)C(=O)COc1c(F)ccc(F)c1F
9.74

Origin of values: paper PMC6990966
